- Measurement Target: Phosphatidylinositol 4,5-bisphosphate 3-kinase catalytic subunit alpha isoform (Homo sapiens, UniProt P42336)
- Run Description: Inhibition of PI3Kalpha (unknown origin) using PIP2 as substrate after 1 hr by Kinase-Glo luminescent kinase assay
Quick reference for log10(IC50) among some compounds
Response schema: value (number) is log10 of IC50 in units of nM.

These solved cases illustrate the format of a correct answer.
Recorded result, O=C(CCC(=O)N1CCN(c2nc(N3CCOCC3)nc(-n3c(C(F)F)nc4ccccc43)n2)CC1)NCCCC(=O)Nc1cccc2c1C(=O)N(C1CCC(=O)NC1=O)C2=O (stereo unspecified) , log10(IC50): 1.26

Per the record, O=C1CCC(N2C(=O)c3cccc(NC(=O)CCCCCN4CCN(c5nc(N6CCOCC6)nc(-n6c(C(F)F)nc7ccccc76)n5)CC4)c3C2=O)C(=O)N1 (stereo unspecified) has log10(IC50) of 3.45

Quick note, log10(IC50) for O=C(CCC(=O)N1CCN(c2nc(N3CCOCC3)nc(-n3c(C(F)F)nc4ccccc43)n2)CC1)NCCCCCC(=O)Nc1cccc2c1C(=O)N(C1CCC(=O)NC1=O)C2=O (stereo unspecified) landed at 1.38

So, O=C(CCC(=O)NCCCC(=O)Nc1cccc2c1C(=O)N(C1CCC(=O)NC1=O)C2=O)NCCCCCC(=O)N1CCN(c2nc(N3CCOCC3)nc(-n3c(C(F)F)nc4ccccc43)n2)CC1 (stereo unspecified) ? Its log10(IC50) was 1.58

Sure, the documented log10(IC50) for O=C1CCC(N2C(=O)c3cccc(NC(=O)CCCCCn4cc(CN5CCN(c6nc(N7CCOCC7)nc(-n7c(C(F)F)nc8ccccc87)n6)CC5)nn4)c3C2=O)C(=O)N1 (stereo unspecified) is 1.93

With those in mind, consider the next compound.
Recorded result, O=C1CCC(N2C(=O)c3cccc(NC(=O)CCCn4cc(CN5CCN(c6nc(N7CCOCC7)nc(-n7c(C(F)F)nc8ccccc87)n6)CC5)nn4)c3C2=O)C(=O)N1 (stereo unspecified) , log10(IC50): 1.95

----------
- Measurement Target: Protein cereblon-pI3K (Homo sapiens) (UniProt P42338+P48736+P42336+O00329+Q96SW2)
- Run Description: Protac activity against PI3K/E3 ligase in human HepG2 cells assessed as induction of p110alpha protein degradation at 10 uM in human HepG2 cells by Western blot analysis
- Assay type: cell-based
Quick reference for Activity among some compounds

Here's what some known entries look like.
Short answer for O=C1CCC(N2C(=O)c3cccc(NC(=O)CCCCCn4cc(CN5CCN(c6nc(N7CCOCC7)nc(-n7c(C(F)F)nc8ccccc87)n6)CC5)nn4)c3C2=O)C(=O)N1 (centres undefined) : Activity was < 50%

Measured Activity of O=C(CCC(=O)N1CCN(c2nc(N3CCOCC3)nc(-n3c(C(F)F)nc4ccccc43)n2)CC1)NCCCCCC(=O)Nc1cccc2c1C(=O)N(C1CCC(=O)NC1=O)C2=O (centres undefined) : < 50%

Looking up O=C1CCC(N2C(=O)c3cccc(NC(=O)CCCn4cc(CN5CCN(c6nc(N7CCOCC7)nc(-n7c(C(F)F)nc8ccccc87)n6)CC5)nn4)c3C2=O)C(=O)N1 (centres undefined) , I found its Activity recorded as < 50%

Now consider the entry below.
// O=C(CCC(=O)N1CCN(c2nc(N3CCOCC3)nc(-n3c(C(F)F)nc4ccccc43)n2)CC1)NCCCC(=O)Nc1cccc2c1C(=O)N(C1CCC(=O)NC1=O)C2=O (centres undefined) : Activity value = < 50%
